tested on: MS2 coat protein; assay: apparent KD of MS2 coat protein; higher = weaker reporter binding; settings: Eterna round: R107; input ligand: none
Label true when apparent KD of MS2 coat protein >= 20 nM; otherwise false.

Kindly determine if apparent KD of MS2 coat protein recorded for CAGUGAGAACGAAGGAGCGCUGAAUGAUGUGGACAUGAGGAUCACCCAUGUUAAGUCCAAUGGCAGGUAGGUCGCGUAACACUAG [Same State - Arginine B] is above or exactly 20 nM.
false

Answer whether apparent KD of MS2 coat protein of GACAUGAGGAUCACCCAUGUACCGCGAGAAGGAGCGCGGAUAAACGCAGGUAGGUCGCUCGUGGGCUCACAUUCAAUCGUAAGCU [Azaesisma] is greater than or equal to 20 nM.
true

Entry UGAUGGAACGGAAGGAGCGUGUAAGAACAAGAACAUGAGGAUCACCCAUGUAUUAAUUUAACACAGGUAGGUCGCCGAGAUAUUG [11.E] : is its apparent KD of MS2 coat protein no less than 20 nM?
false

Dear colleague, could you confirm whether GAACAUAAGGAUAGUAUAAUAACUACAGAAGGAGCGUCAGGAAGGACAGGUAGGUCGCUGGAAGACAUGAGGAUCACCCAUGUUU [#03 Same State - Arginine A] has apparent KD of MS2 coat protein at or above 20 nM?
true

Item GAUAUGAUAAGAAGGAGCGUCGAAAAUGGGUAAACAUGAGGAUCACCCAUGUAAAGGGAACGACAGGUAGGUCGCUUAUUAUAUC [AstromonsSSArgB#19] with apparent KD of MS2 coat protein of 20 nM or above?
true

# bool: apparent KD of MS2 coat protein of UCUCAAGGCCGCUCGGUGCUCCCUGGUGAUACCAGCCAUAUAUCCGGCCCUUGGCAGCACAUGAGGAUCACCCAUGUAGCAGGCG [Sorimaat] >= 20 nM
true

Reported apparent KD of MS2 coat protein reaches at least 20 nM for UGUAUGUGAUUUGAUACCAGACCAGCGGGUGUUACUUGAGGAACACCCAAGUAGGUUUGGGUCCCUUGGCAGCAAAUCGCAUACU [SS Theo B #24 Ms9] ?
true

// inclusive: apparent KD of MS2 coat protein at least 20 nM? input: AGCCCGUGAGCGGCCGCCACUGGAGGCUUUGCGCGACAUGAGGAUCACCCAUGUGUGCCCGGCGUUAGGACCGGGUUCACGUGGU [#1 Same State - Tryptophan B Attempt #19 (HarryS)]
true

Quick check, apparent KD of MS2 coat protein >= 20 nM? CUUGUGGUCGGAAGGAGCGCGAUUACAUAACAUGAGGAUCACCCAUGUAAGAAAUUAUUCAUGCAGGUAGGUCGCCGGUCGUGGG [Same State Arginine B GF10]
true

Check this sequence for apparent KD of MS2 coat protein at or above 20 nM: ACAUGAGGGCGAAGGAGCGCGAACAUGAGGAUCACCCAUGUCUAUAUCCGUCCGCAUGUAUCGCAGGUAGGUCGCGCUGUUACUU [#13 Exclusion - Arginine B]
false

Dear colleague, could you confirm whether GGCCUAUGGCGCGAUACCAGCUUGAGUGUACUGGCCAGGUACAUGAGGAUCACCCAUGUAAGCCCUUGGCAGCGCGUCAUAGGCC [#1 Exclusion - Theophylline B Attempt #23 (HarryS)] has apparent KD of MS2 coat protein at or above 20 nM?
false

apparent KD of MS2 coat protein >= 20 nM for UGCUACAUGAGGAUCACCCAUGUGGGUGAUACCAGCAUUCGUUAAUGCCCUUGGCAGCGCAGCCGAACCAUUCAUUCGGCAGAUC [Laxeor] ?
true
